assay: Antagonist activity at human CCR2 in THP1 cells assessed as inhibition of MCP1-induced chemotaxis
experimental.readout: IC50 (nM)

# chemical.structure, recorded.result
rows = [
    ("Nc1ccc(I)cc1C(=O)NCC(=O)N[C@@H]1CCN(Cc2ccc(Cl)cc2)C1", 22),
    ("Nc1cc(CN2CC[C@@H](NC(=O)CNC(=O)c3cc(C(F)(F)F)ccc3N)C2)ccc1O", 18),
    ("O=C(CNC(=O)c1cccc([N+](=O)[O-])c1)N[C@@H]1CCN(Cc2ccc(Cl)cc2)C1", 445),
    ("O=C(CNC(=O)c1cccc(C(F)(F)F)c1)N[C@@H]1CCN(Cc2ccc(Cl)cc2)C1", 24),
    ("Cc1ccc(CN2CC[C@@H](NC(=O)CNC(=O)c3cc(C(F)(F)F)ccc3N)C2)c(C)c1", 0.83),
    ("O=C(CCNC(=O)c1cccc(C(F)(F)F)c1)N[C@@H]1CCN(Cc2ccc(Cl)cc2)C1", 10000),
    ("Nc1ccc([N+](=O)[O-])cc1C(=O)NCC(=O)N[C@@H]1CCN(Cc2ccc(Cl)cc2)C1", 43),
]

I. Nc1cc(CN2CC[C@@H](NC(=O)CNC(=O)c3cc(C(F)(F)F)ccc3N)C2)ccc1Cl
II. COc1cc(CN2CC[C@@H](NC(=O)CNC(=O)c3cccc(C(F)(F)F)c3)C2)ccc1O
Request: # compare IC50 for I vs II ; return the one with the smaller value Please respond with the label that marks your chosen entry.
Result: I
(I: 11 nM, II: 77 nM)

----------
assay: Antagonist activity at human CCR2 in THP1 cells assessed as inhibition of MCP1-induced chemotaxis
pIC50: −log10 of the molar value.
experimental.readout: pIC50

Consider the following illustrative entries.
# molecule, recorded.result
rows = [
    ("C=Cc1ccc(CN2CC[C@@H](NC(=O)CNC(=O)c3cc(C(F)(F)F)ccc3N)C2)cc1", 8.41),
    ("O=C(CNC(=O)c1cccc(OC(F)(F)F)c1)N[C@@H]1CCN(Cc2ccc(Cl)cc2)C1", 6.44),
    ("O=C(CNC(=O)c1cccc(C(F)(F)F)c1)N[C@@H]1CCN(Cc2ccc(O)cc2)C1", 8.26),
    ("Nc1ccc(C(F)(F)F)cc1C(=O)NCC(=O)N[C@@H]1CCN(Cc2ccc(Br)cc2)C1", 8.59),
    ("Cc1ccc(CN2CC[C@@H](NC(=O)CNC(=O)c3cc(C(F)(F)F)ccc3N)C2)cc1", 8.51),
    ("O=C(CNC(=O)c1cccc(C(F)(F)F)c1)N[C@@H]1CCN(Cc2ccc(OC(F)(F)F)cc2)C1", 6.99),
    ("CCc1ccc(CN2CC[C@@H](NC(=O)CNC(=O)c3cc(C(F)(F)F)ccc3N)C2)cc1", 9.05),
    ("Cc1ccc(CN2CC[C@@H](NC(=O)CNC(=O)c3cccc(C(F)(F)F)c3)C2)cc1", 7.91),
]

A. COc1ccc(CN2CC[C@@H](NC(=O)CNC(=O)c3cc(C(F)(F)F)ccc3N)C2)cc1
B. Cc1ccccc1CN1CC[C@@H](NC(=O)CNC(=O)c2cccc(C(F)(F)F)c2)C1
Request: # compare pIC50 for A vs B ; return the one with the smaller value Please respond with the label that marks your chosen entry.
Result: B

I. COc1ccc(CN2CC[C@@H](NC(=O)CNC(=O)c3cc(C(F)(F)F)ccc3N)C2)cc1O
II. O=C(CNC(=O)c1cccc(C(F)(F)F)c1)N[C@@H]1CCN(Cc2ccc(Br)cc2)C1
III. O=C(CNC(=O)c1cccc(C(F)(F)F)c1)N[C@@H]1CCN(Cc2ccc(F)cc2)C1
IV. Nc1ccc(C(F)(F)F)cc1C(=O)NCC(=O)N[C@@H]1CCN(Cc2ccc(O)cc2)C1
V. O=C(CNC(=O)c1cccc(C(F)(F)F)c1)N[C@@H]1CCN(Cc2ccccc2Cl)C1
Request: Please list these molecules in decreasing order of pIC50. // format: requested-order list of labels
Result: IV, I, II, III, V
(IV: 8.29, I: 8.04, II: 7.68, III: 6.92, V: 6.38)

P. CCc1ccc(CN2CC[C@@H](NC(=O)CNC(=O)c3cccc(C(F)(F)F)c3)C2)cc1
Q. CSc1ccc(CN2CC[C@@H](NC(=O)CNC(=O)c3cccc(C(F)(F)F)c3)C2)cc1
Request: Out of P and Q , name the one with the higher pIC50. Please respond with the label that marks your chosen entry.
Result: P

I. COc1cc(CN2CC[C@@H](NC(=O)CNC(=O)c3cc(C(F)(F)F)ccc3N)C2)ccc1O
II. O=C(CNC(=O)c1cccc(C(F)(F)F)c1)N[C@@H]1CCN(Cc2ccccc2-c2ccc3ccccc3c2)C1
III. CC(NC(=O)c1cccc(C(F)(F)F)c1)C(=O)N[C@@H]1CCN(Cc2ccc(Cl)cc2)C1 (some centres undefined)
Request: Please list these molecules in decreasing order of pIC50. // format: requested-order list of labels
Result: I, II, III
